Reported growth inhibition by item:
TEST_NAME: NCI Yeast Anticancer Drug Screen. Data for the mec2-1 strain (AID 157)
PROTOCOL_CONDITIONS: S. cerevisiae mec2-1 strain, at 50.0 µM, stronger effect = higher value
This is part of a sample that, as a whole, favours compounds with a hit. Of some 79,000 tested, about 15% had one in any assay.
State just the number; it will be interpreted in %.

Examples with answers:
Sc1ccccc1N=Cc1ccc(C=Nc2ccccc2S)cc1; -8.05
Cn1c(=O)c2c(nc(Cl)n2Cc2ccccc2)n(C)c1=O; 5.1
C=CCOc1c(C)cc(C(N)=O)cc1C; -6.85
CCc1c2c(nc3ccc(O)cc13)-c1cc3c(c(=O)n1C2)COC(=O)[C@]3(O)CC; -5.5
Oc1ccc2ccccc2c1C=NCc1c(O)ccc2ccccc12; -1.7

Attention now turns to another entry.
Entry O=c1ccn2cnc3c(ncn3C3OC(CO)C(O)C3O)c2n1 (stereo unspecified) , growth inhibition reported as 9

###

TEST_NAME: NCI Yeast Anticancer Drug Screen. Data for the bub3 strain (AID 167)
PROTOCOL_CONDITIONS: S. cerevisiae bub3 mutant strain, at 50.0 µM, stronger effect = higher value
About 79,000 compounds went through this panel and 15% of them were active in at least one assay; those are over-represented in the sample as a whole.
Reported growth inhibition by item:
State just the number; it will be interpreted in %.

Cc1c2ccccc2c(C)n2c1nc1cc3ccccc3cc12; 4.65

Entry "Cc1ccc2nc(N=C(N)N)[nH]c2c1" , growth inhibition reported as -14.3

Entry OC(CNCCc1ccccc1)COc1cccc2ccccc12 (stereo unspecified) , growth inhibition reported as 88

Entry O=C1NC2OCC(O)C(O1)C2O (stereo unspecified) , growth inhibition reported as -2.25

Entry C=C(Cl)C(Br)(CCl)CCC(Cl)C(C)C (stereo unspecified) (tested in a mixture with another compound) , growth inhibition reported as 90.7

Entry CCOCC(=O)NC1Cc2cc(OC)c(OC)cc2C1O (stereo unspecified) , growth inhibition reported as 2.15

###

TEST_NAME: NCI Yeast Anticancer Drug Screen. Data for the mlh1 rad18 strain (AID 175)
PROTOCOL_CONDITIONS: S. cerevisiae mlh1 rad18 strain growth inhibition; at 50.0 µM
This is part of a sample that, as a whole, favours compounds with a hit. Of some 79,000 tested, about 15% had one in any assay. Active and inactive are the calls of the source. Rule as the data show it: active = growth inhibition above about 70%; inactive = the rest.
Your answer must be one of the following: true = active, false = inactive

Answered examples (5):
O=C1OC(c2ccccc2)=N/C1=C/N1CCCC1C(=O)O (configuration not stated); false
CC(=O)Nc1ccc(Cc2ccc(O)cc2)cc1; false
CC12CCCCC1CC(=O)/C(=C\O)C2 (configuration not stated); false
O=c1c2c(-c3ccccc3)c3ccccc3nc2cnn1-c1ccccc1; false
CC1=CC[C@@H](Br)C(C)(C)[C@]12CC[C@]1(C)O[C@@H]1C2; false

Record lookup: outcome of this test for "Clc1ccc(CCc2ccncn2)c(Cl)c1" ?
false

Record lookup: outcome of this test for "CC1(C)OC(C)(C)c2c1nnc(-c1cccc([N+](=O)[O-])c1)[n+]2[O-]" ?
false

Record lookup: outcome of this test for CC(=O)OC(C)c1cc2c(s1)C(=O)c1sccc1C2=O (configuration not stated) ?
true

Record lookup: outcome of this test for "O=c1/c(=c2\c(=O)c3cccc4cccc2c43)c2cccc3cccc1c32" ?
false

Record lookup: outcome of this test for "C#CCOc1c(C(=O)OCC)c(=O)n(C)c2ccccc12" ?
false

Record lookup: outcome of this test for O=C(Nc1ccccc1CC(O)c1ccc2c(c1)OCO2)c1ccccc1 (configuration not stated) ?
false

Record lookup: outcome of this test for "O=C1CCCCc2cccc(O)c21" ?
false

###

TEST_NAME: NCI Yeast Anticancer Drug Screen. Data for the sgs1 mgt1 strain (AID 161);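 also: 0% = growth of cultures given vehicle only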
PROTOCOL_CONDITIONS: S. cerevisiae sgs1 mgt1 strain, at 50.0 µM, stronger effect = higher value
The panel holds about 79,000 compounds, 15% with a hit somewhere; the sample as a whole holds those more often.
READOUT_NAME: growth inhibition (%)
State just the number; it will be interpreted in %.

Examples with answers:
CC=C(c1ccccc1)c1ccccc1; -13.7
CC(C)NC(=O)OCc1c(COC(=O)NC(C)C)n(C)c2c1ccc1ccccc12; 83.8
Brc1cc2c(cc1C=NC1CCCCC1)OCO2; -4.05
NC(=O)c1ccccc1OC(=O)Nc1ccccc1; 5.1
O=C(CSc1nnc(Cc2ccccc2)o1)Nc1ccc(Cl)cc1Cl; -41.3
CC(C)(C)[N]=[V]([Cl])([Cl])[Cl]; -7.3
CNc1nc(Cl)cc2nc(Cl)cn12; -18.6
CCCC(=O)OC(CCC1CCCO1)CCC1CCCO1 (stereo not given); 10.4

Entry CCCN(CCC)CC(O)c1cccc2c1cc(Cl)c1ccccc12 (stereo not given) , growth inhibition reported as 99.8

Entry O=C1NC(=O)C(c2ccc(Cl)cc2)(c2cccc(Cl)c2)N1 (stereo not given) , growth inhibition reported as 18.3

Entry "COc1ccc2cc3n(c2c1)CCc1cc(OC)c(OC)cc1-3" , growth inhibition reported as 5.9

###

TEST_NAME: NCI Yeast Anticancer Drug Screen. Data for the mlh1 rad18 strain (AID 175)
PROTOCOL_CONDITIONS: S. cerevisiae mlh1 rad18 strain growth inhibition; at 50.0 µM; stronger effect = higher value
The panel holds about 79,000 compounds, 15% with a hit somewhere; the sample as a whole holds those more often.
Reported growth inhibition by item:
State just the number; it will be interpreted in %.

COC1CCC(C2=NC3CCCCC3SC2)CC1 (stereo unspecified); 31.7
C/C=C(\CC)C(C#N)(CCC)C(=O)OCC (stereo unspecified); -17.6
O=C(c1ccc(O)cc1)C1N=NCC1c1ccccc1 (stereo unspecified); 13.8
O=c1c2cc(Br)ccc2n(C2OC(CO)C(O)C(O)C2O)c(=S)n1-c1ccccc1 (stereo unspecified); 24.9
CC(C)N1C(=O)NC(=O)C12CCN(Cc1ccccc1)CC2; -13.7

Entry "CC(=O)Nc1ccc(/C=N/NC(=O)COCC(=O)N/N=C/c2ccc(NC(C)=O)cc2)cc1" , growth inhibition reported as -9.65

###

TEST_NAME: NCI Yeast Anticancer Drug Screen. Data for the cln2 rad14 strain (AID 165);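 also: 0% = growth equal to vehicle treated cultures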
PROTOCOL_CONDITIONS: S. cerevisiae cln2 rad14 strain, at 50.0 µM, stronger effect = higher value
This is part of a sample that, as a whole, favours compounds with a hit. Of some 79,000 tested, about 15% had one in any assay.
growth inhibition of -10% or higher: 1 (yes). Under -10%: 0 (no).

Answered examples (3):
C=CC1OCC2(CO1)COC(C=C)OC2 (configuration not stated); 1 (yes)
O=c1c(C(=Nc2ccccc2)c2ccccc2)c[nH]n1-c1ccccc1; 1 (yes)
O=C(O)c1c(Br)c(Br)c(Br)c(Br)c1C(=O)Nc1cc([N+](=O)[O-])ccc1O; 1 (yes)

Is reported growth inhibition greater than or equal to -10% here: CC1OC(C)(CCc2ccccc2)OC1C (configuration not stated)
0 (no)

###

Reported growth inhibition by item:
TEST_NAME: NCI Yeast Anticancer Drug Screen. Data for the bub3 strain (AID 167)
PROTOCOL_CONDITIONS: S. cerevisiae bub3 mutant strain, at 50.0 µM, stronger effect = higher value
Compounds without any hit were thinned out: in the full panel of roughly 79,000, 15% have a hit.
State just the number; it will be interpreted in %.

Entry "COc1cccc(Nc2sc(C(=O)c3cc4cc(Cl)ccc4o3)c(N)c2C#N)c1" , growth inhibition reported as -3.55

Entry "CCc1n[nH]c(=O)n1NC(=O)/C=C\C(=O)O" , growth inhibition reported as -10.7

Entry "Clc1ccc2sc(-n3ccc4ccccc43)nc2c1" , growth inhibition reported as -15.4

###

TEST_NAME: NCI Yeast Anticancer Drug Screen. Data for the sgs1 mgt1 strain (AID 161);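 also: 0% = growth of cultures given vehicle only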
PROTOCOL_CONDITIONS: S. cerevisiae sgs1 mgt1 strain, at 50.0 µM, stronger effect = higher value
This is part of a sample that, as a whole, favours compounds with a hit. Of some 79,000 tested, about 15% had one in any assay.
READOUT_NAME: growth inhibition (%)
State just the number; it will be interpreted in %.

Examples with answers:
COc1cc(Br)c(C=Nc2cccc3ccc(OS(=O)(=O)c4ccc([N+](=O)[O-])cc4)cc23)cc1OC; 0.65
OCc1c(CO)c2cccn2c2c1cnn2-c1ccccc1; 23.9
CCC(c1ccc(O)cc1)c1cc2c(cc1OCCO)OCO2 (stereo unspecified); -5.7
CCCCCOc1ccc(C2=C(c3ccccc3)C(=O)C(c3ccccc3)=C2c2ccccc2)cc1; 33.5

Attention now turns to another entry.
Entry "NC(=S)N/C=C\c1nc2ccccc2[nH]c1=O" , growth inhibition reported as -39.1

###

Reported growth inhibition by item:
TEST_NAME: NCI Yeast Anticancer Drug Screen. Data for the mec2-1 strain (AID 157)
PROTOCOL_CONDITIONS: S. cerevisiae mec2-1 strain, at 50.0 µM, stronger effect = higher value
This is part of a sample that, as a whole, favours compounds with a hit. Of some 79,000 tested, about 15% had one in any assay.
State just the number; it will be interpreted in %.

COc1ccc(NC(=O)Nc2ccc(NC(C)=O)cc2)c(OC)c1; -18.2
O=C(Nc1cc(Cl)ccc1Cl)Oc1ccc(Cl)cc1C(=O)c1ccccc1; -10.4
OCC(O)C(O)C(O)C(O)CN=Cc1ccccc1O (centres undefined); 7.9
COc1ccc(C#CC(O)C(F)(F)F)cc1 (centres undefined); -20.4
O=S(=O)(c1ccccc1)n1c2c(c3ccccc31)Cc1ccccc1-2; 0.75
Cc1cc2c(cc1[N+](=O)[O-])OCCO2; 3.9

Entry CC(C)CCCC(C)C1CCC2C3C(=O)C=C4C=CCCC4(C)C3CCC12C (centres undefined) , growth inhibition reported as 11.2

Entry Cc1cn(C2OC(CO)C(O)C(O)C2O)c(=O)[nH]c1=O (centres undefined) , growth inhibition reported as 5.65

Entry "CC1=NC(=O)CNN1C1=NNC2(C(=O)N1)c1ccccc1-c1ccccc12" , growth inhibition reported as -7.3

Entry "O=C1CN(c2cccc(Cl)c2)C(=O)CN1/N=C/c1ccc(O)c(O)c1" , growth inhibition reported as 0.15

Entry O=C(O)C1C2C=CC(O2)C1C(=O)Nc1ncccn1 (centres undefined) , growth inhibition reported as -33.9

Entry "O=C(NC(=O)c1c(F)cccc1F)Nc1ccc(Cl)nc1" , growth inhibition reported as 5.95

Entry "Cc1cccc(C2=NC(=C3CCCCC3)C(=O)O2)c1" , growth inhibition reported as 6.6

Entry O=C(c1ccccc1)C1C(C(=O)c2ccccc2)C1c1ccccc1 (centres undefined) , growth inhibition reported as -4.45

Entry COC(=O)CC1(C(=O)OC)Nc2ccc(Cl)cc2C(=O)O1 (centres undefined) , growth inhibition reported as 1.85

Entry CCOC(=O)c1cc2c(nc1C)-c1cc(Cl)ccc1OC2OCc1ccccc1 (centres undefined) , growth inhibition reported as -3

Entry "CC(C)(C)[N]=[V]([Cl])([Cl])[Cl]" , growth inhibition reported as -0.65

Entry CC1=NCC(C)S1 (centres undefined) , growth inhibition reported as -9.95

Entry C=C1C(=O)[C@@]23CC1C(O)[C@@H](OC(C)=O)[C@@H]2C1(C)C(OC(C)=O)C[C@@H](OC(C)=O)C(C)(C)[C@@H]1C[C@H]3OC(C)=O (some centres undefined) , growth inhibition reported as 11.9

Entry "CC1=[N+]([O-])c2ccccc2C(=O)C1=O" , growth inhibition reported as 12.3

Entry OC1c2cc(Br)ccc2-c2c(F)cc(Br)cc21 (centres undefined) , growth inhibition reported as -6.75

Entry Cc1ccc(S(=O)(=O)N/N=C/C(C)c2cccnc2)cc1 (centres undefined) , growth inhibition reported as 6.8

Entry "CCOC(=O)CCNc1nc(N)nc(C)c1NC=O" , growth inhibition reported as 5.55

Entry CSc1ccc(C2OC(=O)c3ccccc32)c2ccccc12 (centres undefined) , growth inhibition reported as -11.6
